# targetDesc: Grb2 SH2 (UniProt P62993)
# experiment: SH2 binding enrichment of the phosphorylated peptide, bacterial display (enrichment ratio); higher = better substrate or ligand; peptides without Tyr show the background;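 also: peptide library displayed on the E. coli surface as eCPX fusions, selected cells deep-sequenced, score is each peptide's frequency after selection divided by its frequency in the input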
observable: SH2 binding enrichment

• TDLAYYLVCKG [ASL_Y376_R379C] = 0.959
• TVEDHDFEGGI [TKT_Y563_Y563D_YF] = 0.737
• NLPGGYSGSVK [MCPH1_Y606] = 0.72
• NKEAICSGFIR [SMCHD1_Y283_Y283C_YF] = 0.827

A: SLFNGYVFSGV [NEIL3_Y71_YF]
B: GRQWNYVASMS [KLHL4_Y552]
C: ILGRTHYVNHE [NEDD4_Y627_Y627H]
Qu. Rank items: key SH2 binding enrichment, increasing. List the labels according to the requested ordering.
Ans. A, B, C
(A: 0.71, B: 1.04, C: 5.66)
